Measured CC50 at 72 h of individual entries
# test: Cytotoxicity against human RD cells assessed as reduction in cell growth incubated for 3 days by MTT assay
# Assay type: toxicity, cell-based
# condition_info: time 3 day

Field: example entries. Status: answers known.
COc1ccc(F)c(C(=O)Nc2cncc(-c3cc(-c4cccnc4)cs3)c2)c1Cl	> 100 µM
CCOC(=O)c1ccc(OCCC2CCN(c3ccc(C)nn3)CC2)cc1 [PIRODAVIR]	> 10 µM
O=C(Nc1cncc(-c2cc(-c3cccnc3)cs2)c1)c1ccc(O)cc1	> 10 µM
COc1ccc(Cl)c(C(=O)Nc2cncc(-c3cc(-c4cccnc4)cs3)c2)c1F	> 100 µM

With those in mind, consider the next compound.
For the compound "COc1ccc(F)c(C(=O)Nc2cncc(-c3cc(-c4cccnc4F)cs3)c2)c1" , report CC50 at 72 h.
> 100 µM
